targetOrSystem: T1, Cynomolgus monkey glycophorin A on Cynomolgus monkey red blood cells or red blood cell membranes (Cynomolgus monkey)
T1 construct: whole, on cells; also called Cyno RBC; Cynomolgus monkey RBC membranes
assayExplanation: ELISA, Fab on coated cyno RBC membranes
measuredParameter: binding in ELISA relative to parental Fab

Sample answers from the record:
TPP-5906, humanized and germlined 6C12 Fab; VL: (S24R, A26S, S49A, P54Q, F95Y); VH: (I48M, D56G, D66G, L70M, T72R) (Fab, V domains shown, The text says that a 6xHIS tag is present on the Fabs in the peptide ELISA; it is not in the printed chains) VH: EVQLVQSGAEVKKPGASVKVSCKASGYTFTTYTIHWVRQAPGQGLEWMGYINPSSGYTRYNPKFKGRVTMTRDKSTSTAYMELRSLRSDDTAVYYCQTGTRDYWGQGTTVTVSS VL: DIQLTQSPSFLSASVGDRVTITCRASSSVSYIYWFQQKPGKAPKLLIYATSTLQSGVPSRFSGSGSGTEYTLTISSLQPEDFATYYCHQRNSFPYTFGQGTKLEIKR ... 2.5 relative to parental Fab
TPP-5839, Hu6C12-24 Fab variant VL: (S24R, A26S, S49A, P54Q, F95Y); VH: (I48M, D66G, L70M, T72R) (Fab, V domains shown, Built on the parental Fab TPP-4935) VH: EVQLVQSGAEVKKPGASVKVSCKASGYTFTTYTIHWVRQAPGQGLEWMGYINPSSDYTRYNPKFKGRVTMTRDKSTSTAYMELRSLRSDDTAVYYCQTGTRDYWGQGTTVTVSS VL: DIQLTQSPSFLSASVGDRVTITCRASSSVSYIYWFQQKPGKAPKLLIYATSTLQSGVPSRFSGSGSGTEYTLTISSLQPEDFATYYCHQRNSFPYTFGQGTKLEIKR ... 2.3 relative to parental Fab
TPP-5907, humanized and germlined 6C12 Fab; VL: (S24R, A26S, S49A, P54Q, F95Y); VH: (I48M, S54G, D56G, D66G, L70M, T72R) (Fab, V domains shown) VH: EVQLVQSGAEVKKPGASVKVSCKASGYTFTTYTIHWVRQAPGQGLEWMGYINPGSGYTRYNPKFKGRVTMTRDKSTSTAYMELRSLRSDDTAVYYCQTGTRDYWGQGTTVTVSS VL: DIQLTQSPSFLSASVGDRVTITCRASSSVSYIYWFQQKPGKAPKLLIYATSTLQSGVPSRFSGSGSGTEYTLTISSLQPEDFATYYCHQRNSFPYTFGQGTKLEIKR ... 1.9 relative to parental Fab
TPP-5841, Hu6C12-24 Fab variant VL: (S24R, A26S, S49A, P54Q, F95Y); VH: (D66G, L70M) (Fab, V domains shown, Built on the parental Fab TPP-4935) VH: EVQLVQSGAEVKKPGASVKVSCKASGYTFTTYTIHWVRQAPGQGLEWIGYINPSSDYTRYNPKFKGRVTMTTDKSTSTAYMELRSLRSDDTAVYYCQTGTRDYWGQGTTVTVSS VL: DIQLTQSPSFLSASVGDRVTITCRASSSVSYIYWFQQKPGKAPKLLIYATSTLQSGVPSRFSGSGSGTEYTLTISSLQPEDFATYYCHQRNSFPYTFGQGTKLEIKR ... 2.1 relative to parental Fab
TPP-5835, Hu6C12-24 Fab variant VL: (S24R, A26S, S49A, P54Q, F95Y); VH: (I48M, L70M) (Fab, V domains shown, Built on the parental Fab TPP-4935) VH: EVQLVQSGAEVKKPGASVKVSCKASGYTFTTYTIHWVRQAPGQGLEWMGYINPSSDYTRYNPKFKDRVTMTTDKSTSTAYMELRSLRSDDTAVYYCQTGTRDYWGQGTTVTVSS VL: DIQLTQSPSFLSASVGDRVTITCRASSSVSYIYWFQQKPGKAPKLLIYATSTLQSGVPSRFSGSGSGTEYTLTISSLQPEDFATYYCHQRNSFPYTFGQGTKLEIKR ... 1.4 relative to parental Fab

Please report the recorded binding in ELISA relative to parental Fab for TPP-5702, Hu6C12-24 Fab variant VL: (S24R, A26S, S49A, P54Q, F95Y) (Fab, V domains shown, Built on the parental Fab TPP-4935) VH: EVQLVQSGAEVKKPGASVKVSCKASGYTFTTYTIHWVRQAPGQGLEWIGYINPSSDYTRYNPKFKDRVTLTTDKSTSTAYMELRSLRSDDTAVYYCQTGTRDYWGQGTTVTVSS VL: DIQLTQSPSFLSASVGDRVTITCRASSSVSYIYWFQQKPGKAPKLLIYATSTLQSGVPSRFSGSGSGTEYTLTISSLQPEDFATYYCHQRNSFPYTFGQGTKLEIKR .
1.1 relative to parental Fab
